PROTOCOL_NOTES: qHTS for Inhibitors of human tyrosyl-DNA phosphodiesterase 1 (TDP1): qHTS in cells in presence of CPT; further: nearly all actives have a fitted effect of over 55% in size
COND: chicken DT40 Tdp1-/-;hTDP1 cells + 20 nM CPT, ATP luminescence, 48 h; series mostly up to 46.2 µM
Method: Human tyrosyl-DNA phosphodiesterase 1 (TDP1) is a novel repair gene, and we propose to use it as a new target for anticancer drug development. […] For the primary screen, Tdp1-/-;hTDP1 cells will be exposed to small molecules in the presence or absence of CPT, and their growth kinetics will be evaluated after 48 hours by measuring ATP activity. […] The hit compounds will then be evaluated in the presence or absence of CPT using Tdp1-/- cells. […]
Among all 420,000 compounds or so, about 50,000 (12%) were called active. Another 26% or so got no clear call; they are omitted. The call rests on the fitted dose curve; in most records, active means well fitted inhibition curve with a large enough effect; inconclusive means small, poorly fitted or top-dose-only effect; inactive means flat fitted curve, though single readings scatter. This excerpt belongs to a sample that is enriched for actives.
Outcomes: true for active, false for inactive

>>> assigned_category("COc1ccc(-n2c(C)nc3c(cnn3-c3ccccc3)c2=O)cc1")
"true"
>>> assigned_category("CCC1CCCCN1C(=O)Cn1c(=O)n(CCCCCC(=O)NCc2ccccc2)c(=O)c2sccc21 (stereo unspecified)")
"true"
>>> assigned_category("O=C(CCCn1c(=O)c2sccc2n(CC(=O)NCC2CCCO2)c1=O)NCc1ccco1 (stereo unspecified)")
"false"
>>> assigned_category("C/C(=N\\NS(=O)(=O)c1cccc([N+](=O)[O-])c1)c1cc2ccccc2o1")
"false"
>>> assigned_category("COc1ccc(-n2c(SC)nc(O)cc2=O)cc1")
"false"
>>> assigned_category("CCc1nc2c(cnn2-c2ccc(C)cc2)c(=O)n1-c1ccc(C)cc1")
"false"
>>> assigned_category("CC(=O)Cn1cnc2c(cnn2-c2ccccc2)c1=O")
"false"
>>> assigned_category("CCC(C)Sc1nc2c(cnn2-c2ccc(F)cc2)c(=O)[nH]1 (stereo unspecified)")
"false"
>>> assigned_category("Cc1cc(C)n(S(=O)(=O)c2cccc([N+](=O)[O-])c2)n1")
"false"
>>> assigned_category("COC(=O)c1sccc1-n1cccc1C(=O)C(=O)N1CCCCC1")
"false"
>>> assigned_category("CCN(CCCNC(=O)CCn1c(=O)[nH]c2ccsc2c1=O)c1ccccc1")
"false"

* * *

PROTOCOL_NOTES: qHTS for Inhibitors of human tyrosyl-DNA phosphodiesterase 1 (TDP1): qHTS in cells in presence of CPT; further: nearly all actives have a fitted effect of over 55% in size; further: potency means the concentration at half of the fitted maximal effect
COND: chicken DT40 Tdp1-/-;hTDP1 cells + 20 nM CPT, ATP luminescence, 48 h; series mostly up to 46.2 µM
Out of some 420,000 compounds screened, about 50,000 (12%) were called active. Roughly 26% stayed inconclusive and do not appear here. The full list was thinned out, with actives kept by preference.
OBSERVED_PROPERTY: Potency

>>> assay_value("Cc1ccc(S(=O)(=O)N2[C@@H](c3ccc(Br)cc3)C(C(=O)O)=C[C@H]2CC2CCCC2)cc1")
"inactive"
>>> assay_value("O=C(NCc1cccnc1)c1ccc2nc([C@@H]3O[C@H](CO)[C@H](O)[C@H](O)[C@H]3O)[nH]c2c1")
"inactive"
>>> assay_value("O=C(C1CCN(Cc2ccc(Cl)cc2)CC1)N1CCN(Cc2ccc3c(c2)OCO3)CC1")
"23.1 µM (active)"
>>> assay_value("O=C(C1CCN(S(=O)(=O)c2cnc[nH]2)CC1)N1CCN(Cc2ccc3c(c2)OCO3)CC1")
"20.6 µM (active)"
>>> assay_value("CC(=O)Nc1ccc(NC(=O)CC2CCCC2)cc1")
"inactive"
>>> assay_value("Cc1ccc(S(=O)(=O)N2[C@@H](c3ccccc3F)C(C(=O)O)=CC[C@H]2c2ccc(Cl)cc2)cc1")
"inactive"
>>> assay_value("CCOC(=O)C1=CCC(c2ccc(F)cc2)N(S(=O)(=O)c2ccc(C)cc2)C1 (stereo unspecified)")
"16.4 µM (active)"
>>> assay_value("CN(C)c1nc(-c2cccnc2)nc(-c2ccc(Cl)cc2)c1C#N")
"inactive"
>>> assay_value("O=C(CSc1ccccc1)Nc1cccc(S(=O)(=O)N2CCOCC2)c1")
"inactive"
>>> assay_value("Cc1ccccc1S(=O)(=O)N1[C@@H](c2cccc(Cl)c2)C(C(=O)OC(C)(C)C)=CC[C@H]1c1ccc(Cl)cc1")
"20.6 µM (active)"
>>> assay_value("COc1ccc(C23NCCN2C(=O)c2ccccc23)cc1 (stereo unspecified)")
"inactive"
>>> assay_value("CNC(=O)N1c2ccccc2C=Cc2ccccc21")
"inactive"
>>> assay_value("CCOC(=O)c1sc(C)c2c1NC(C)(c1cccc3ccccc13)NC2=O (stereo unspecified)")
"25.9 µM (active)"
>>> assay_value("CCOC(=O)C1=CC[C@@H](c2ccccc2)N(S(=O)(=O)c2ccc(C)cc2)[C@H]1c1cccc(OC)c1")
"23.1 µM (active)"
>>> assay_value("Cc1c(S(=O)(=O)NC(C)c2ccccc2)c(=O)n(C)c(=O)n1C (stereo unspecified)")
"inactive"
>>> assay_value("O=C(NCc1ccco1)/C(=C/c1cccc([N+](=O)[O-])c1)NC(=O)c1ccco1")
"inactive"
>>> assay_value("CCOC(=O)c1cc2cc3ccccc3cc2oc1=O")
"inactive"
>>> assay_value("CC1(C(=O)NS(=O)(=O)Cc2cccc(Cl)c2)CCN1C(=O)Cc1ccccc1 (stereo unspecified)")
"inactive"
>>> assay_value("COc1ccc2c(c1)c1nc3n(c(=O)c1n2CC(=O)Nc1ccccc1)CCS3")
"inactive"
>>> assay_value("Cc1ccc(S(=O)(=O)N2CCCC2CO)cc1 (stereo unspecified)")
"inactive"
>>> assay_value("CC1C(C)N(C(=O)CCl)c2ccccc2N1C(=O)CCl (stereo unspecified)")
"0.58 µM (active)"
